experiment: Competitive inhibition of carnitine palmitoyltransferase using palmitoyl-CoA
reported property: Ki (nM)
Numbers only, in nM.

Would you please look over these solved cases?
CCCCCCCCCCCCCCOP(=O)([O-])O[C@H](CC(=O)O)C[N+](C)(C)C = 3600
CCCCCCCCCCCCCCNC(=O)N[C@H](CC(=O)[O-])C[N+](C)(C)C = 360

I am curious: what Ki value has been reported for CCCCCCCCCCCCS(=O)(=O)N[C@H](CC(=O)[O-])C[N+](C)(C)C ?
250

----------
assay: Inhibition of carnitine palmitoyltransferase in 20 hrs fasted Sprague-Dawley rat liver mitochondria assessed as palmitate oxidation by radiometry
reported property: pIC50
Answers are plain numbers, as −log10 of the molar value.

I am curious: what pIC50 value has been reported for C[N+](C)(C)C[C@H](N)CC(=O)[O-] ?
5.49
